- method-summary: Phase 1 part A: PK after single and multiple once-daily oral doses
- Type: in vivo, human
- test-settings: human, plasma, po, 40 mg, Day 1, 40 mg, White; mean (CV%)

{"substance-smiles": "Cn1c(=O)oc2ccc(-c3ccc(C[C@@H](C#N)NC(=O)[C@@H]4CNCCCO4)cc3)cc21", "Cmax": "328 ng/mL"}

* * *

- method-summary: Phase 1 part B: PK of single 40 mg oral dose, fasted vs fed (food effect)
- Format: in vivo, human
- test-settings: human, plasma, oral, 40 mg, fed, White; read-out: median Tmax

{"substance-smiles": "Cn1c(=O)oc2ccc(-c3ccc(C[C@@H](C#N)NC(=O)[C@@H]4CNCCCO4)cc3)cc21", "quantity-unit": "h", "Tmax": 2}

* * *

- method-summary: Phase 1 part A: PK after single and multiple once-daily oral doses
- Type: in vivo, human
- test-settings: human, plasma, po, 25 mg, Day 30, 25 mg once daily, White; mean (CV%)

{"substance-smiles": "Cn1c(=O)oc2ccc(-c3ccc(C[C@@H](C#N)NC(=O)[C@@H]4CNCCCO4)cc3)cc21", "Cmax / ng/mL": 265}

* * *

- method-summary: Phase 1 part B: PK of single 40 mg oral dose, fasted vs fed (food effect)
- Type: in vivo, human
- test-settings: human, plasma, po, 40 mg, 40 mg single oral, fasted, White
endpoint: Cmax (ng/mL)

{"substance-smiles": "Cn1c(=O)oc2ccc(-c3ccc(C[C@@H](C#N)NC(=O)[C@@H]4CNCCCO4)cc3)cc21", "endpoint": "Cmax", "measured-result": 269}

* * *

- method-summary: Phase 1 part B: PK of single 40 mg oral dose, fasted vs fed (food effect)
- Type: in vivo, human
- test-settings: human, plasma, oral, 40 mg, fed, Japanese; read-out: median Tmax
endpoint: Tmax (h)

{"compound": "Cn1c(=O)oc2ccc(-c3ccc(C[C@@H](C#N)NC(=O)[C@@H]4CNCCCO4)cc3)cc21 [Brensocatib]", "quantity-unit": "h", "measured-result": 3}

* * *

- method-summary: Phase 1 part A: PK after single and multiple once-daily oral doses
- Type: in vivo, human
- test-settings: human, plasma, po, 25 mg, Day 1, 25 mg, Japanese; mean (CV%); read-out: t1/2 (converted)
endpoint: half-life (h)

{"substance-smiles": "Cn1c(=O)oc2ccc(-c3ccc(C[C@@H](C#N)NC(=O)[C@@H]4CNCCCO4)cc3)cc21", "measured-result": 21.7}

* * *

- method-summary: Phase 1 part A: PK after single and multiple once-daily oral doses
- Type: in vivo, human
- test-settings: human, plasma, po, 25 mg, Day 1, 25 mg, Japanese; mean (CV%)

{"compound": "Cn1c(=O)oc2ccc(-c3ccc(C[C@@H](C#N)NC(=O)[C@@H]4CNCCCO4)cc3)cc21 [Brensocatib]", "AUC(0-inf) (ng·h/mL)": 3390}

* * *

- method-summary: Phase 1 part A: PK after single and multiple once-daily oral doses
- Format: in vivo, human
- test-settings: human, plasma, po, 25 mg, Day 30, 25 mg once daily, White; mean (CV%)

{"molecule": "Cn1c(=O)oc2ccc(-c3ccc(C[C@@H](C#N)NC(=O)[C@@H]4CNCCCO4)cc3)cc21 [Brensocatib]", "AUC": "3870 ng·h/mL"}

* * *

- method-summary: Phase 1 part A: PK after single and multiple once-daily oral doses
- Type: in vivo, human
- test-settings: human, plasma, oral, 25 mg, Day 30, 25 mg once daily, Japanese; mean (CV%); read-out: Cmin
- Protocol: The study was conducted sequentially in 2 parts. […] Eligible participants were admitted to the clinical unit for single‐dose evaluation from days −2 to 2 and from days 29 to 31 for steady‐state PK and safety evaluation. […] All statistical analyses were performed using SAS version 9.3 or higher (SAS Institute Inc., Cary, North Carolina). […] PK concentrations below the limit of quantification (BLQ) at time 0 on days 1 and 30 were considered 0. […]

{"molecule": "Cn1c(=O)oc2ccc(-c3ccc(C[C@@H](C#N)NC(=O)[C@@H]4CNCCCO4)cc3)cc21 [Brensocatib]", "concentration at 30 day": "98.8 ng/mL"}

* * *

- method-summary: Phase 1 part B: PK of single 40 mg oral dose, fasted vs fed (food effect)
- Type: in vivo, human
- test-settings: human, plasma, po, 40 mg, 40 mg single oral dose, White, fasted; mean (CV%)

{"substance-smiles": "Cn1c(=O)oc2ccc(-c3ccc(C[C@@H](C#N)NC(=O)[C@@H]4CNCCCO4)cc3)cc21", "Cmax, ng/mL": 301}

* * *

- method-summary: Phase 1 part A: PK after single and multiple once-daily oral doses
- Format: in vivo, human
- test-settings: human, plasma, po, 40 mg, Day 1, 40 mg, White; mean (CV%); read-out: t1/2 (converted)

{"substance-smiles": "Cn1c(=O)oc2ccc(-c3ccc(C[C@@H](C#N)NC(=O)[C@@H]4CNCCCO4)cc3)cc21", "quantity-unit": "h", "half-life": 22.1}

* * *

- method-summary: Phase 1 part A: PK after single and multiple once-daily oral doses
- Assay type: in vivo, human
- test-settings: human, plasma, po, 40 mg, Day 1, 40 mg, Japanese; mean (CV%)

{"substance-smiles": "Cn1c(=O)oc2ccc(-c3ccc(C[C@@H](C#N)NC(=O)[C@@H]4CNCCCO4)cc3)cc21", "quantity-unit": "ng/mL", "Cmax": 245}

* * *

- method-summary: Phase 1 part A: PK after single and multiple once-daily oral doses
- Format: in vivo, human
- test-settings: human, plasma, po, 25 mg, Day 30, 25 mg once daily, Japanese; mean (CV%)
endpoint: AUC

{"substance-smiles": "Cn1c(=O)oc2ccc(-c3ccc(C[C@@H](C#N)NC(=O)[C@@H]4CNCCCO4)cc3)cc21", "endpoint": "AUC", "measured-result": "4170 ng·h/mL"}

* * *

- method-summary: Phase 1 part A: PK after single and multiple once-daily oral doses
- Format: in vivo, human
- test-settings: human, plasma, po, 40 mg, Day 1, 40 mg, White; median (range); read-out: Tmax

{"substance-smiles": "Cn1c(=O)oc2ccc(-c3ccc(C[C@@H](C#N)NC(=O)[C@@H]4CNCCCO4)cc3)cc21", "quantity-unit": "h", "Tmax": 1.27}

* * *

- method-summary: Phase 1 part A: PK after single and multiple once-daily oral doses
- Format: in vivo, human
- test-settings: human, plasma, po, 10 mg, Day 1, 10 mg, White; mean (CV%)
endpoint: AUC (ng·h/mL)

{"substance-smiles": "Cn1c(=O)oc2ccc(-c3ccc(C[C@@H](C#N)NC(=O)[C@@H]4CNCCCO4)cc3)cc21", "quantity-unit": "ng·h/mL", "measured-result": 620}

* * *

- method-summary: Phase 1 part A: PK after single and multiple once-daily oral doses
- Assay type: in vivo, human
- test-settings: human, plasma, po, 25 mg, Day 30, 25 mg once daily, Japanese; median (range); read-out: Tmax

{"molecule": "Cn1c(=O)oc2ccc(-c3ccc(C[C@@H](C#N)NC(=O)[C@@H]4CNCCCO4)cc3)cc21 [Brensocatib]", "Tmax": "1.75 h"}

* * *

- method-summary: Phase 1 part A: PK after single and multiple once-daily oral doses
- Format: in vivo, human
- test-settings: human, plasma, oral, single‐dose administration, range over groups; read-out: median tmax

{"substance-smiles": "Cn1c(=O)oc2ccc(-c3ccc(C[C@@H](C#N)NC(=O)[C@@H]4CNCCCO4)cc3)cc21", "Tmax": "1 to 1.5 h"}

* * *

- method-summary: Phase 1 part B: PK of single 40 mg oral dose, fasted vs fed (food effect)
- Format: in vivo, human
- test-settings: human, plasma, oral, 40 mg, Japanese n=9, fed; least squares mean

{"substance-smiles": "Cn1c(=O)oc2ccc(-c3ccc(C[C@@H](C#N)NC(=O)[C@@H]4CNCCCO4)cc3)cc21", "Cmax": "293 ng/mL"}

* * *

- method-summary: Phase 1 part A: PK after single and multiple once-daily oral doses
- Assay type: in vivo, human
- test-settings: human, plasma, po, 10 mg, Day 1, 10 mg, White; mean (CV%)

{"substance-smiles": "Cn1c(=O)oc2ccc(-c3ccc(C[C@@H](C#N)NC(=O)[C@@H]4CNCCCO4)cc3)cc21", "Cmax": "55.9 ng/mL"}

* * *

- method-summary: Phase 1 part A: PK after single and multiple once-daily oral doses
- Type: in vivo, human
- test-settings: human, plasma, po, 25 mg, Day 30, 25 mg once daily, White; median (range); read-out: Tmax

{"molecule": "Cn1c(=O)oc2ccc(-c3ccc(C[C@@H](C#N)NC(=O)[C@@H]4CNCCCO4)cc3)cc21 [Brensocatib]", "Tmax (h)": 1.02}

* * *

- method-summary: Phase 1 part A: PK after single and multiple once-daily oral doses
- Type: in vivo, human
- test-settings: human, plasma, po, 25 mg, Day 1, 25 mg, White; mean (CV%)
endpoint: AUC(0-inf) (ng·h/mL)

{"compound": "Cn1c(=O)oc2ccc(-c3ccc(C[C@@H](C#N)NC(=O)[C@@H]4CNCCCO4)cc3)cc21 [Brensocatib]", "quantity-unit": "ng·h/mL", "measured-result": 3200}
